target.under.test: T1, human corticotropin-releasing hormone receptor 1 (CRHR1) (human, UniProt P34998 24-415)
T1 sequence (looked up): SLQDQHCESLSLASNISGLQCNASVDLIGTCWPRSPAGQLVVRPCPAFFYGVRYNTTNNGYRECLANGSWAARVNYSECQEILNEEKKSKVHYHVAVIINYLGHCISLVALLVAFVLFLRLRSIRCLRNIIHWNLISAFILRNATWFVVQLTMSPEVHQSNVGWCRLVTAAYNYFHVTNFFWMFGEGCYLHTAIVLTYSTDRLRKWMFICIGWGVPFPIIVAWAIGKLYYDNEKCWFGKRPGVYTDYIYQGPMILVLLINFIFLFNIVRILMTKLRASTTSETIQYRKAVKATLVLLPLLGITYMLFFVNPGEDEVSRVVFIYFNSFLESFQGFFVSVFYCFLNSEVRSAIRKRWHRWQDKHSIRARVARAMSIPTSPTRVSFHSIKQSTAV
assay.name: cell-based or functional assay
*1 amine or outer side, *2 acyl side, *3 side chain or, on linkers, in order; H or OH if unused. Where no end group is shown, it is not given here. [ ]: non-standard residue; d: D form. γGlu = O=C(O)[C@H](CCC(=O)[*:2])N[*:1]; αMeL = CC(C)C[C@](C)(N)C(=O)O; Aib = CC(C)(N)C(=O)O
measured.parameter: hCRHR1 cAMP EC50

[[record]]
binder = "[γGlu]GSPSIVTS[αMeL]DVPT[Aib][αMeL]LQKILEQERAEKARQQATEAAEILAQV-NH2 (not fully specified (residue 1, N-terminus); also: Glu1 linked through its gamma-carboxyl to Gly2) [polypeptide comprising SEQ ID NO:28]"
measured_parameter = "hCRHR1 cAMP EC50"
endpoint_value = "> 10 µM"


Pending binder:
-- ask Tell me measured hCRHR1 cAMP EC50 for Ac-IVTS[αMeL]D[dV]PTG[αMeL]LQIKLEQERAEKARQQAKENTEILAQV-NH2 (not fully specified (residue 29)) [polypeptide comprising SEQ ID NO:31] please.
-- reply > 10 µM
